Target: recombinant soluble homotrimeric HA of A/Indonesia/5/05 (H5N1) (Influenza A virus A/Indonesia/5/2005 (H5N1))
Assay: HA microarray, BCC supernatant
Details: remark: other sources report otherwise
Quantity: Trimeric HA Binding RLU (RLU)

- Binder: "TCN-552 (5249_I23) (antibody, V domains shown) VH: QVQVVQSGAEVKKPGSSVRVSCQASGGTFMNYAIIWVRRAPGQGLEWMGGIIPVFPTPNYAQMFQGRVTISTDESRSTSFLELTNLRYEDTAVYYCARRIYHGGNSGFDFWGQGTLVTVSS VL: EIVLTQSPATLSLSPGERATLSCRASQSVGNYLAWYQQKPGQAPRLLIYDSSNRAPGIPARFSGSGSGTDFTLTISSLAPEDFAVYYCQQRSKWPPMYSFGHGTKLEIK"
  Quantity: "Trimeric HA Binding RLU"
  Value unit: "RLU"
  Test value: 43600
- Binder: "TCN-522 (3212_I12) (antibody, V domains shown) VH: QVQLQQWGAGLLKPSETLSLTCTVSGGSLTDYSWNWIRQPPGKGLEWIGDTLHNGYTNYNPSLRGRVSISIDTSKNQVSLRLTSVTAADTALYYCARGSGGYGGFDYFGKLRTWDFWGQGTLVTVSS VL: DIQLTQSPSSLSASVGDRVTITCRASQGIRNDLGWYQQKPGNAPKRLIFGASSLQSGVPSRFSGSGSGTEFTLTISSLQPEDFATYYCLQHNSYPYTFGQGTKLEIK"
  Quantity: "Trimeric HA Binding RLU"
  Value unit: "RLU"
  Test value: 67
- Binder: "TCN-534 (5249_B02) (antibody, V domains shown) VH: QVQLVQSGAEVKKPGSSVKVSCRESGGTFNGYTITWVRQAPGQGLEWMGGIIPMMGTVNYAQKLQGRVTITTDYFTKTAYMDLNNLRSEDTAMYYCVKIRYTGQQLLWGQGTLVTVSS VL: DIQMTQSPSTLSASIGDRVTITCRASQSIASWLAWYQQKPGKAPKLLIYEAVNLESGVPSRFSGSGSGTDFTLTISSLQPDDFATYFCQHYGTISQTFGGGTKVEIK"
  Quantity: "Trimeric HA Binding RLU"
  Value unit: "RLU"
  Test value: 46400
- Binder: "TCN-553 (5261_C18) (antibody, V domains shown) VH: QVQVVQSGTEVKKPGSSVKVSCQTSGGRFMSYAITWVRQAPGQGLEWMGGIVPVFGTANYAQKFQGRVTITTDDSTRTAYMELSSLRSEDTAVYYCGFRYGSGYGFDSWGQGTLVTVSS VL: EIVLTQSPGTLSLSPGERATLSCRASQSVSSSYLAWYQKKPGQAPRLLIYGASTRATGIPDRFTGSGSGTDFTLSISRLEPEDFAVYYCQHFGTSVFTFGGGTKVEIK"
  Quantity: "Trimeric HA Binding RLU"
  Value unit: "RLU"
  Test value: 24400
